test system: EKVX NSCLC; experiment: NCI tumour cell line growth inhibition, 48 h
measured_quantity: GI50

Ask: Which value of GI50 has been reported for COc1cc(CNCCCCCCN2C(=O)c3cccc4cccc(c34)C2=O)ccc1O in the records?
Reply: 13.1 µM

Next:
Ask: Which value of GI50 has been reported for NC(=O)c1ccc2c(c1)-c1nc-2nc2[n-]c(nc3nc(nc4[n-]c(n1)c1ccc(C(N)=O)cc41)-c1ccc(C(N)=O)cc1-3)c1ccc(C(N)=O)cc21.[Co+2] in the records?
Reply: > 50 µM

Ask: Which value of GI50 has been reported for COc1cc([N+](=O)[O-])c(OC)cc1-c1nc2sc(C)c(C)n2c1/C(N)=N/C(=N)N in the records?
Reply: > 100 µM

Ask: Which value of GI50 has been reported for CN=C(N)c1ccc(N=C(N)c2ccc(-c3ccc(C(N)=Nc4ccc(C(N)=NC)cc4)cc3)cc2)cc1 in the records?
Reply: > 100 µM

FYI, the data here is from PubChem BioAssay (NCI).
